molecular target: Phenylethanolamine N-methyltransferase (Homo sapiens) (UniProt P11086); assay: Confirmatory Screen for Target Class Profiling of Small Molecule Inhibitors of Methyltransferases (AID 1745852); settings: MTase-Glo luminescence, SAH detection, recombinant enzyme; measured here: PNMT max response; stronger effect = lower value
Sequence (P11086 whole entry, looked up): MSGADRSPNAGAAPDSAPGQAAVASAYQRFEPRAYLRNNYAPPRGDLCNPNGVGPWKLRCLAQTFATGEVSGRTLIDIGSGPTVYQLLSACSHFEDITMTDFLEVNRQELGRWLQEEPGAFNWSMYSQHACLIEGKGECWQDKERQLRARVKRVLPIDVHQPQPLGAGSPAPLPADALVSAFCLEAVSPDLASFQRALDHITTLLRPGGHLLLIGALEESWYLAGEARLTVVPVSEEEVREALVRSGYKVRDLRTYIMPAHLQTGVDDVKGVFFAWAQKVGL
activity values by entry
Provide only the numeric value, understood in %.

Some compounds with recorded activity:
[[record]]
compound = "COc1cc2c(cc1O)CC[C@H]1[C@@H]2CC[C@]2(C)[C@H](O)CC[C@@H]12"
unitstext = "%"
recordedresult = -7.82

[[record]]
compound = "NC(=O)c1cnc(NCCc2ccc(O)c(Cl)c2)nc1NCc1ccccc1"
unitstext = "%"
recordedresult = -25.9

[[record]]
compound = "NC[C@@](O)(c1ccc(Cl)cc1)c1ccc(-c2cn[nH]c2)cc1"
unitstext = "%"
recordedresult = -0.0519

[[record]]
compound = "CCCCc1nc2cc(/C=C/C(=O)NO)ccc2n1CCN(CC)CC"
unitstext = "%"
recordedresult = 3.65

[[record]]
compound = "C=C[C@H]1[C@H](O[C@@H]2O[C@H](CO)[C@@H](O)[C@H](O)[C@H]2O)OC=C(C(=O)OC)[C@H]1CCOC(=O)c1cc(O)c(O)c(O)c1"
unitstext = "%"
recordedresult = -11.3


Give activity for Cc1nc([C@](C)(O)CO)sc1-c1cnc(N)c(O[C@H](C)c2cc(F)ccc2-n2nccn2)c1 -10.9

Give activity for COc1cccc(-c2cc(NCc3ccc4c(c3)OCO4)nc(N)n2)c1 -2.8

Give activity for COc1cc2nc(N3CCC(N4CCCCC4)CC3)nc(NC3CCCCCC3)c2cc1OC -35.6

Give activity for C=C1C(=O)OC2C1CCC(=C)C1CC(OC(C)=O)C(=C)C12 (stereo not given) -8.53

Give activity for CCc1c(-c2ccccc2)c(-c2ccccc2)nn1-c1ccccc1-c1cccc(OCC(=O)O)c1 -7.07

Give activity for COc1ccc(C2(O)CCC(N3CC[C@@H](NC(=O)CNC(=O)c4cccc(C(F)(F)F)c4)C3)CC2)cn1 (stereo not given in full) 0.417

Give activity for C[C@@H](Oc1cc(-n2cnc3ccc(OC4CCN(C)CC4)cc32)sc1C(N)=O)c1ccccc1C(F)(F)F -73.6

Give activity for CN1CCN(C2CCC(n3cc(-c4ccc(Oc5ccccc5)cc4)c4c(N)ncnc43)CC2)CC1 (stereo not given) -72

Give activity for CC1=CC(=O)CC(C)(C)C1CCC(C)O[C@@H]1O[C@H](CO[C@@H]2OC[C@@H](O)[C@H](O)[C@H]2O)[C@@H](O)[C@H](O)[C@H]1O (stereo not given in full) 0.0687

----------
system: CAOV3; assay: Primary qHTS to identify gynecologic anti-cancer compounds using libraries of approved drugs and bioactive compounds (AID 1345084); details: Gynecologic cancer cell panel viability, ATPlite luminescence, 48 h; series mostly up to 57.5 µM; note: nearly all actives have a fitted effect of over 55% in size
Results filed as inconclusive are left out. Active and inactive are the calls of the source. Calls follow the shape of the dose curve; as a rule, active = well fitted cell-killing curve with a large enough effect; inconclusive = small, poorly fitted or top-dose-only effect, or effect the other way; inactive = flat fitted curve, though single readings scatter.
Select the correct class. Options are yes (1) for active, no (0) for inactive and nothing else.

For orientation, consider the following solved cases.
[[record]]
compound = "C/C(=C\\CC[C@@H](C)[C@H]1CC(O)[C@@]2(C)C3CC[C@H]4C(C)(C)[C@@H](OC5OCC(O)C(O)C5OC5OC(CO)C(O)C(O)C5O)CC[C@@]45C[C@@]35CC(O)[C@]12C)C(=O)O (stereo partly drawn)"
qualitativelabel = "no (0)"

[[record]]
compound = "CC(C)C(C(=O)N(C)C(C)C(N)=O)N(C)C(=O)C1CCCN1C(=O)/C=C/C=C/C(O)C(C)O (stereo not drawn)"
qualitativelabel = "no (0)"

[[record]]
compound = "Cc1csc(NC(=O)c2ccc(COc3cccc(Cl)c3)o2)n1"
qualitativelabel = "no (0)"


For OC[C@@]1(O)CO[C@@H](OC[C@H]2O[C@@H](Oc3c[nH]c4ccccc34)[C@H](O)[C@@H](O)[C@@H]2O)[C@@H]1O , which call appears in the assay record? no (0)

For CC(=O)NC1C(OC(C)(C)C2CCC3(C)C=C(C4CCC5C4(C)CC(O)C4OC(C(C)(C)O)CCC45C)CCC3O2)OC(CO)C(O)C1O (stereo not drawn) , which call appears in the assay record? no (0)

For O=C(NOCC(O)CO)c1ccc(F)c(F)c1Nc1ccc(I)cc1F (stereo not drawn) , which call appears in the assay record? no (0)

For C[C@@H]1O[C@@H](OC[C@H]2O[C@@H](OC(CCCCc3ccc(O)cc3)CCc3ccc(O)cc3)[C@H](O)[C@@H](O)[C@@H]2O)[C@H](O)[C@H](O)[C@H]1O (stereo partly drawn) , which call appears in the assay record? no (0)

For CC(C)CC(=O)O[C@@H]1OC=C(CO[C@@H]2O[C@H](CO)[C@@H](O)[C@H](O)[C@H]2O)[C@H]2[C@@H]3O[C@H]3[C@@](O)(CO)[C@@H]12 , which call appears in the assay record? no (0)

For Nc1ncnc2c1ncn2CCNCCCCCO , which call appears in the assay record? no (0)

For Cc1cc(C)cc(C(=O)NOCCCCCC(=O)NO)c1 , which call appears in the assay record? yes (1)

For COc1ccc([C@@]2(O)c3c(ccc4c3OC(C)(CCC=C(C)C)C=C4)NC(=O)[C@@H]2OC)cc1 (stereo partly drawn) , which call appears in the assay record? no (0)
